// provenance: ChEMBL document CHEMBL3885861

species: Rattus norvegicus; assay: Open TG-GATES - Regimen: Daily Repeat; format: toxicity, organism-based, Sprague-Dawley; design: regimen Daily Repeat, gender Male, age 6 weeks; settings: in vivo, po, 0 mg/kg, […], tissue Plasma, route gavage, dose level Control, time 28 day
Classify by measured A/G: true if it is equal to or exceeds 1, false if it is smaller.

Check out these entries, answers already filled in.
CCCNC(=O)NS(=O)(=O)c1ccc(Cl)cc1 [CHLORPROPAMIDE]
false
CC1=C(/C=C/C(C)=C/C=C/C(C)=C/CO)C(C)(C)CCC1
true
COC1=CC(=O)C[C@@H](C)[C@]12Oc1c(Cl)c(OC)cc(OC)c1C2=O
true
CCOc1ccc(NC(=O)CC(C)O)cc1 (stereo not drawn)
false
CCOC(=O)CCC(=O)O[C@H]1[C@H](O[C@@H]2[C@@H](C)[C@H](O[C@H]3C[C@@](C)(OC)[C@@H](O)[C@H](C)O3)[C@@H](C)C(=O)O[C@H](CC)[C@@](C)(O)[C@H](O)[C@@H](C)C(=O)[C@H](C)C[C@@]2(C)O)O[C@H](C)C[C@@H]1N(C)C [ERYTHROMYCIN ETHYLSUCCINATE]
true

(Q) hey, is A/G for this one >= 1? `NNC(=O)c1ccncc1`
(A) true

(Q) hey, is A/G for this one >= 1? `CN(C)CCN(Cc1cccs1)c1ccccn1`
(A) true

(Q) hey, is A/G for this one >= 1? `NC(N)=Nc1nc(CSCCC(N)=NS(N)(=O)=O)cs1`
(A) true
